Source listed as ChEMBL document CHEMBL3785040.

protocol: Inhibition of beta-lactamase VIM-1 lysate (unknown origin) using nitrocefin as substrate preincubated for 10 mins followed by substrate addition
pKi: −log10 of the molar value.
endpoint: pKi

Recorded results for 3 compounds are shown here.
compound: O=C(COc1ccccc1)N[C@@H]1C(=O)N[C@H]1N(OCc1ccccc1)C(=O)c1ccccc1
pKi: < 3.80

compound: CCOc1ccc(C(=O)N(OCc2ccccc2)C2CC(=O)N2SC)cc1 (racemic)
pKi: < 3.80

compound: CC(C)(C)[Si](C)(C)N1C(=O)CC1N(OCc1ccccc1)C(=O)c1ccccc1 (racemic)
pKi: < 3.80

Could you share which pKi value was measured for CCOc1ccc(C(=O)N(OCc2ccccc2)C2CC(=O)N2)cc1 (racemic) ?
< 3.80

Could you share which pKi value was measured for C=CCON(C(=O)c1ccc([N+](=O)[O-])cc1)C1CC(=O)N1SC (racemic) ?
4.64

Could you share which pKi value was measured for C=CCON(C(=O)c1cc([N+](=O)[O-])cc(C(F)(F)F)c1)C1CC(=O)N1SC (racemic) ?
4.23
